Test system: Cyno FGFR2b
Assay: ELISA binding to recombinant cyno FGFR2b (Example 11)
parameter: Emax (A450)
Put your answer as a value accompanied by its unit after it.

Look over these answered cases.
[[record]]
molecule = "BGAh9239: humanized anti-FGFR2b IgG1 antibody from murine BGAm1823; VH SEQ ID NO: 9, VL SEQ ID NO: 10 (antibody, V domains shown, Synthetic: VH AA; Synthetic: VL AA) VH: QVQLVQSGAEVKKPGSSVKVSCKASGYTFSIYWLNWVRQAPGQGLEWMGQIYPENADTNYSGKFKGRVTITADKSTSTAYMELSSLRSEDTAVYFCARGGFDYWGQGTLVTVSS VL: DIQMTQSPSSLSASVGDRVTITCRASENIYSNLAWYQQKPGKAPKLLIYTATNLAEGVPSRFSGSGSGTDFTLTISSLQPEDFATYYCQHFYGILYTFGQGTRLEIK"
parameter = "Emax (A450)"
assay_value = "2.931 A450"

[[record]]
molecule = "BGAm1823: parental murine anti-FGFR2b antibody; VH SEQ ID NO: 28, VL SEQ ID NO: 30 (antibody, V domains shown, Synthetic: VH AA; Synthetic: VL AA) VH: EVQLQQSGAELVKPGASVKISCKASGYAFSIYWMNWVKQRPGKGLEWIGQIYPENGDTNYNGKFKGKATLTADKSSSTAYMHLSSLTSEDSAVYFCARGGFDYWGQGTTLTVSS VL: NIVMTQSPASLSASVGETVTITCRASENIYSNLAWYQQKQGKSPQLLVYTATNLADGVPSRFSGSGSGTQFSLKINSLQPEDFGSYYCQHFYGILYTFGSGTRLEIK"
parameter = "Emax (A450)"
assay_value = "2.996 A450"


Now examine the next entry.
## Task Sample BGAh9179: humanized anti-FGFR2b IgG1 antibody from murine BGAm1371; VH SEQ ID NO: 21, VL SEQ ID NO: 22 (antibody, V domains shown, Synthetic: VH AA; Synthetic: VL AA) VH: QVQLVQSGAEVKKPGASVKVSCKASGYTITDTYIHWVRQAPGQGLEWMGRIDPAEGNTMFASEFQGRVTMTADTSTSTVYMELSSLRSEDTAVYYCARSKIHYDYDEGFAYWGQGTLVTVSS VL: DIVLTQSPDSLAVSLGERATINCRASESVDDYGYSFLHWYQQKPGQPPKLLIYRASNLESGVPDRFSGSGSGTDFTLTISSLQAEDVAVYYCQQSNQNPRTFGGGTKVEIK — what was its Emax (A450)?
## Result 2.953 A450
